Each recorded value in this set is attributed to patent US7202261B2.

Target: human calcium receptor (Homo sapiens)
Construct: expressed in transfected cells
Assay: Calcium Receptor Inhibitor Assay
Type: cell-based
Details: HEK 293 4.0–7 cells stably expressing the human calcium receptor; fluo-3; read-out: IC50 for blocking increases of intracellular Ca2+ elicited by extracellular Ca2+
pIC50: −log10 of the molar value. Counter-ions that a name gives are not always drawn.
Listing of entries alongside the reported pIC50.

| compound | testSystem | pIC50 |
| --- | --- | --- |
| COc1cccc(CC(C)(C)NCC(O)COc2ccccc2)c1 (centres unmarked) [Compound 99, Hydrochloride] | human calcium receptor (Homo sapiens) | < 4.30 |
| COc1ccc(CC(C)(C)NCC(O)COc2cccc3ccccc23)cc1 (centres unmarked) [Compound 19, Hydrochloride] | human calcium receptor (Homo sapiens) | > 6.00 |
| COc1ccc(CC(C)(C)NCC(O)COc2cccc(OC(F)(F)F)c2)cc1 (centres unmarked) [Compound 154, Hydrochloride] | human calcium receptor (Homo sapiens) | > 6.00 |
| COc1ccc(CC(C)(C)NCC(O)COc2ccccc2)cc1F (centres unmarked) [Compound 128] | human calcium receptor (Homo sapiens) | > 5.00 |
| COc1ccc(CC(C)(C)NCC(O)COc2cccc(C(C)(C)C)c2)cc1 (centres unmarked) [Compound 50, Hydrochloride] | human calcium receptor (Homo sapiens) | > 6.00 |
| COc1ccc(CC(C)(C)NCC(O)COc2ccc(OC)cc2)cc1 (centres unmarked) [Compound 7, Hydrochloride] | human calcium receptor (Homo sapiens) | > 5.00 |
| COc1ccc(CC(C)(C)NCC(O)COc2cccc(C#N)c2)cc1 (centres unmarked) [Compound 160, Hydrochloride] | human calcium receptor (Homo sapiens) | > 6.00 |
| COc1ccc(CC(C)(C)NC[C@H](O)COc2cccc(Cl)c2Cl)cc1 [Compound 116, Hydrochloride] | human calcium receptor (Homo sapiens) | > 6.00 |

----------
Molecular target: human calcium receptor (Homo sapiens, UniProt P41180)
Construct: expressed in transfected cells
Assay: Calcium Receptor Inhibitor Assay
Assay type: cell-based
Counter-ions that a name gives are not always drawn.
Listing of entries alongside the reported IC50.

| molecule | IC50 |
| --- | --- |
| COc1ccc(CC(C)(C)NCC(O)CCCCCCCCO)cc1 (centres unmarked) [Compound 123, Hydrochloride] | < 10 µM |
| C=CCOCC(O)CNC(C)(C)Cc1ccc(OC)cc1 (centres unmarked) | < 50 µM |
| COc1ccc(CC(C)(C)NCC(O)Cc2ccc3c(c2)OCO3)cc1 (centres unmarked) [Compound 124, Hydrochloride] | < 10 µM |
| CCCCCCCCCCC(O)CNC(C)(C)Cc1ccc(OC)cc1 (centres unmarked) | > 50 µM |
| CCCCOCC(O)CNC(C)(C)Cc1ccc(OC)cc1 (centres unmarked) | < 10 µM |
| COc1ccc(CC(C)(C)NCc2ccccc2)cc1 | > 50 µM |
| COc1ccc(CC(C)(C)NCC(O)CCc2cccc(Cl)c2Cl)cc1 (racemic) | < 1 µM |
| CCCCC(CC)COCC(O)CNC(C)(C)Cc1ccc(OC)cc1 (centres unmarked) | < 1 µM |
| COc1ccc(CC(C)(C)NCCCCc2ccccc2)cc1 | > 50 µM |
| CCCCCCOCC(O)CNC(C)(C)Cc1ccc(OC)cc1 (centres unmarked) | < 10 µM |
| COc1ccc(CC(C)(C)NCC(O)COC2CCCCC2C#N)cc1 (centres unmarked) [Compound 131, Hydrochloride] | < 1 µM |
| CCCCCCCCC(O)CNC(C)(C)Cc1ccc(OC)cc1 (centres unmarked) | < 1 µM |
| COc1ccc(CC(C)(C)NCC(O)COCC2CCCCC2)cc1 (centres unmarked) [Compound 75, Hydrochloride] | < 10 µM |
| COc1ccc(CC(C)(C)NCC(O)CCCC[N+](=O)[O-])cc1 (racemic) | < 50 µM |
| COc1ccc(CC(C)(C)NCC(O)COC(C)C)cc1 (centres unmarked) | < 10 µM |
| COc1ccc(CC(C)(C)NCC(O)COC2CCCCC2)cc1 (centres unmarked) | < 10 µM |
| C=CCCCCCCC(O)CNC(C)(C)Cc1ccc(OC)cc1 (centres unmarked) | < 10 µM |
| COc1ccc(CC(C)(C)NCC(O)CSc2ccccc2)cc1 (centres unmarked) | < 10 µM |
| COc1ccc(CC(C)(C)NCCCc2ccccc2)cc1 | > 50 µM |
| COc1ccc(CC(C)(C)NCCc2ccccc2)cc1 | > 50 µM |

----------
Target: human calcium receptor (Homo sapiens)
Construct: expressed in transfected cells
Experiment: Calcium Receptor Inhibitor Assay
Assay type: cell-based
Conditions: HEK 293 4.0–7 cells stably expressing the human calcium receptor; fluo-3; read-out: IC50 for blocking increases of intracellular Ca2+ elicited by extracellular Ca2+
pIC50: −log10 of the molar value. Where a name gives a salt, the structure may show the parent alone.

| molecule | pIC50 |
| --- | --- |
| COc1ccc(CC(C)(C)NC[C@@H](O)COc2ccccc2)cc1 (single isomer, unassigned) [Compound 32, Hydrochloride] | > 5.00 |
| CCc1ccc(OCC(O)CNC(C)(C)Cc2ccc(OC)cc2)cc1 (stereo not shown) [Compound 141, Hydrochloride] | > 6.00 |
| COc1ccc(CC(C)(C)NCC(O)COc2ccc(Cl)cc2)cc1 (stereo not shown) [Compound 5, Hydrochloride] | > 6.00 |
| COc1ccc(CCC(C)(C)NCC(O)COc2ccccc2)cc1 (stereo not shown) [Compound 90, Hydrochloride] | > 4.30 |

----------
Listing of entries alongside the reported IC50.
Target: human calcium receptor (Homo sapiens, UniProt P41180)
Construct: expressed in transfected cells
Sequence (P41180 20-1078): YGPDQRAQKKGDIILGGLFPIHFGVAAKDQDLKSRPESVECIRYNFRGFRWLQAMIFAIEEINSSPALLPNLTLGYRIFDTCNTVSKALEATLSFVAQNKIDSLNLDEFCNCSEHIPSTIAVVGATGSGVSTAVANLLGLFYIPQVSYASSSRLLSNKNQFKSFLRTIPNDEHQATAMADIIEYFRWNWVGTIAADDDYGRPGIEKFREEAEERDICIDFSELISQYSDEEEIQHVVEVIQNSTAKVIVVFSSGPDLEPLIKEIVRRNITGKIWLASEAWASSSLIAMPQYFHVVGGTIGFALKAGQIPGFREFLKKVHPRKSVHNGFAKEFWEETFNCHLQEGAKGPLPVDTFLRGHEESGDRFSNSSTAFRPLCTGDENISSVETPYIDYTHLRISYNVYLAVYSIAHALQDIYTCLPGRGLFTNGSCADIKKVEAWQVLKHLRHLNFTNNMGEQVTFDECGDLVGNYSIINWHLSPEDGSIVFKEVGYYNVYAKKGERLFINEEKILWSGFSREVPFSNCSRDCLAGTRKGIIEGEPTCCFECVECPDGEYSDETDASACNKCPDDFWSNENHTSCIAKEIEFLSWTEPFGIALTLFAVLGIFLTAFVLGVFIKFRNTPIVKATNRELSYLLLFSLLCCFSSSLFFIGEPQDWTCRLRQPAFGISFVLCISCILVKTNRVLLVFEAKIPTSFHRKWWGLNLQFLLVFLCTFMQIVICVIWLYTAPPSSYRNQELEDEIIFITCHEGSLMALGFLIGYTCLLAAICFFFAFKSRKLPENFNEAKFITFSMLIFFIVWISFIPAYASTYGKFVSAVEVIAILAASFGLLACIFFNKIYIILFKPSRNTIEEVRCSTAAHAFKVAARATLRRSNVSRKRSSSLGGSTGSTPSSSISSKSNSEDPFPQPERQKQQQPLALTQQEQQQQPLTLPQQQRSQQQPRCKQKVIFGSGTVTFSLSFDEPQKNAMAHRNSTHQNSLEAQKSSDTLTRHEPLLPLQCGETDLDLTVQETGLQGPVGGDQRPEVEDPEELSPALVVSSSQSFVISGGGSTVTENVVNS
Assay: Calcium Receptor Inhibitor Assay
Type: cell-based
Conditions: HEK 293 4.0–7 cells stably expressing the human calcium receptor; fluo-3; read-out: IC50 for blocking increases of intracellular Ca2+ elicited by extracellular Ca2+
Description: This example illustrates the use of the Calcium Receptor Inhibitor Assay. […] Res. 10 Suppl. […] Intracellular Ca^2+ was measured using fluo-3, a fluorescent calcium indicator. The procedure was as follows: 1. […] SPF-PCB was made up and stored at 4° C. […] The BSA-free fraction was used for diluting the cells in the cuvette for measurements of fluorescence. […] 6. […] Measurements of fluorescence were performed at 37° C. with constant stirring using a spectrofluorimeter. […]
Where a name gives a salt, the structure may show the parent alone.

| molecule | IC50 |
| --- | --- |
| COc1ccc(CC(C)(C)NCC(O)COc2ccccc2NC(C)=O)cc1 (centres unmarked) | > 50000 nM |
| COc1ccc(CC(C)(C)NCC(O)COCCCCCCc2ccccc2)cc1 (centres unmarked) | < 1000 nM |
| CC(C)(Cc1cccc(Cl)c1)NCC(O)COc1ccccc1 (centres unmarked) [Compound 104, Hydrochloride] | < 10000 nM |
| COc1ccc(CC(C)(C)NCC(O)COc2ccc(C(C)(C)C)cc2)cc1 (centres unmarked) [Compound 6, Hydrochloride] | < 1000 nM |
| COc1ccc(CC(C)(C)NCC(O)COc2cc(Cl)cc(Cl)c2)cc1 (centres unmarked) [Compound 137, Hydrochloride] | < 1000 nM |
| COc1ccc(CC(C)(C)NCC(O)COc2cc(C(F)(F)F)cc(C(F)(F)F)c2)cc1 (centres unmarked) [Compound 156, Hydrochloride] | < 1000 nM |
| COc1ccc(CC(C)(C)NCC(O)COc2ccccc2Cl)cc1 (centres unmarked) [Compound 40, Hydrochloride] | < 1000 nM |
| COc1ccc(CC(C)(C)NCCCOc2cccc3ccccc23)cc1 | < 50000 nM |
